- testSystem: Alpha-2A adrenergic receptor (Homo sapiens); note: assay procedure not described here
- Sequence (P08913 whole entry): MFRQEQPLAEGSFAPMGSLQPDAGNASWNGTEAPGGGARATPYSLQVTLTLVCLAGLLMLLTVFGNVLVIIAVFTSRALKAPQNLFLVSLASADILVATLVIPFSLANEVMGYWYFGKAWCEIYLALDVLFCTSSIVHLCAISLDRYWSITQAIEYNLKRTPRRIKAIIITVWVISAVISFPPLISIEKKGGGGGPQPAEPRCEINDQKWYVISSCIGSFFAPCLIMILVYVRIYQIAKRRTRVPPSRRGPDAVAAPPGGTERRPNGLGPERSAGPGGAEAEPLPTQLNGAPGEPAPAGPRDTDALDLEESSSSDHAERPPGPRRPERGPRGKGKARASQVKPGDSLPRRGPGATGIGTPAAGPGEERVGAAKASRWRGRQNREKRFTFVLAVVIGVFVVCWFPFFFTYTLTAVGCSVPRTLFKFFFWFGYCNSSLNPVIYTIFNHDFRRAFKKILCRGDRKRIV
- Format: functional, cell-based
recordedEndpoint: AC50

>>> assayvalue("O=C(O)c1ccccc1OP(=O)(O)O [FOSFOSAL]")
"> 30 µM"
>>> assayvalue("CN1[C@@H]2CC[C@H]1C[C@@H](OC(=O)c1c[nH]c3ccccc13)C2 [TROPISETRON]")
"> 30 µM"
>>> assayvalue("Nc1nc(O)c2ncn(COC(CO)CO)c2n1 [GANCICLOVIR]")
"> 30 µM"
>>> assayvalue("CNC(=O)Oc1ccc2c(c1)[C@]1(C)CCN(C)[C@@H]1N2C [PHYSOSTIGMINE]")
"> 30 µM"
>>> assayvalue("CCCN(CCC)CCc1cccc2c1CC(=O)N2 [ROPINIROLE]")
"> 30 µM"
>>> assayvalue("CC(C)N(CCCCOCC(=O)NS(C)(=O)=O)c1cnc(-c2ccccc2)c(-c2ccccc2)n1 [SELEXIPAG]")
"> 30 µM"

Could you report AC50 for every entry in the following list?
1. CCCC[C@H](C)C[C@H](O)/C=C/[C@H]1[C@H](O)CC(=O)[C@@H]1CCCC/C=C/C(=O)O [LIMAPROST]
2. Nc1nc(F)nc2c1ncn2[C@@H]1O[C@H](COP(=O)(O)O)[C@@H](O)[C@@H]1O [FLUDARABINE PHOSPHATE]
3. N=C(N)c1ccc2cc(OC(=O)c3ccc(N=C(N)N)cc3)ccc2c1 [NAFAMOSTAT]
4. COc1ccc(/C=C/C(=O)Nc2ccccc2C(=O)O)cc1OC
5. CO[C@@]1(NC(=O)CSCC#N)C(=O)N2C(C(=O)O)=C(CSc3nnnn3C)CS[C@@H]21 [CEFMETAZOLE]

1: > 30 µM; 2: > 30 µM; 3: > 30 µM; 4: > 30 µM; 5: > 30 µM

====

Endpoint: AC50. System: D(3) dopamine receptor (Homo sapiens, UniProt P35462). Items follow. Note: assay procedure not described here.
Sequence (P35462 whole entry): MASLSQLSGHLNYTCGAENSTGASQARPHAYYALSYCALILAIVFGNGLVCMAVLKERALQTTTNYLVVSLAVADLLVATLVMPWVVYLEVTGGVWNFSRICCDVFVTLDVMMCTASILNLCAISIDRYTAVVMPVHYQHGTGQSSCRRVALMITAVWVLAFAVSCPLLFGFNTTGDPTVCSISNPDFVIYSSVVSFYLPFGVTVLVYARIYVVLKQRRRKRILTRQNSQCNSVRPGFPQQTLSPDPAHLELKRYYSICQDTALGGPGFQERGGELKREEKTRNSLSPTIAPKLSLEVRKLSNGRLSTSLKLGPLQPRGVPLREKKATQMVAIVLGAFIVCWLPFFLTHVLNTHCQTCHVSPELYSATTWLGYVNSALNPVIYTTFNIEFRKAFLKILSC

Guide cases for AC50, answers given:
>>> assayvalue("CN1C[C@H](C(=O)N[C@]2(C)O[C@@]3(O)[C@@H]4CCCN4C(=O)[C@H](Cc4ccccc4)N3C2=O)C[C@@H]2c3cccc4[nH]cc(c34)C[C@H]21 [DIHYDROERGOTAMINE]")
"0.055 µM"
>>> assayvalue("NS(=O)(=O)c1cc(C2(O)NC(=O)c3ccccc32)ccc1Cl (configuration not stated)")
"> 30 µM"
>>> assayvalue("CCC(=O)OCC(=O)[C@@]1(OC(=O)CC)[C@@H](C)C[C@H]2[C@@H]3CCC4=CC(=O)C=C[C@]4(C)[C@@]3(F)[C@@H](O)C[C@@]21C [BETAMETHASONE DIPROPIONATE]")
"> 30 µM"
>>> assayvalue("CO/N=C(\\C(=O)N[C@@H]1C(=O)N2C(C(=O)O)=C(COC(N)=O)CS[C@H]12)c1ccco1")
"> 30 µM"
>>> assayvalue("O=C(Nc1c(Cl)cncc1Cl)c1ccc(OC(F)F)c(OCC2CC2)c1")
"> 30 µM"
>>> assayvalue("N[C@H](Cc1cc(I)c(Oc2cc(I)c(O)c(I)c2)c(I)c1)C(=O)O")
"> 10 µM"

Give AC50 for all compounds that follow.
1. CCN(CC)CC(=O)Oc1ccc(NC(C)=O)cc1
2. CN(C)c1cc(NC(=O)CNC(C)(C)C)c(O)c2c1C[C@H]1C[C@H]3[C@H](N(C)C)C(O)=C(C(N)=O)C(=O)[C@@]3(O)C(O)=C1C2=O
3. CCc1oc2ccccc2c1C(=O)c1cc(Br)c(O)c(Br)c1
4. CC(=O)c1ccc2c(c1)N(CCCN1CCC(CCO)CC1)c1ccccc1S2

["> 30 µM", "> 30 µM", "> 30 µM", "0.017 µM"]
